The reported numbers originate from patent US6498125B2.

Test system: Monocotyledonous and dicotyledonous test plants
Assay: Example B1: pre-emergence herbicidal action, 2 kg of AS/ha
Format: in vivo
Settings: test plant Stellaria, 3 weeks, scale 1-9
Experimental: Monocotyledonous and dicotyledonous test plants are sown in standard soil in plastic pots. […] After a test period of 3 weeks, the test is evaluated with a nine-level scale of ratings (1=complete damage, 9=no effect). […]
recordedMetric: pre-emergence action rating, Stellaria
When you answer, write just the number.

CC=CC(=O)OC1=C(C(=O)c2ccc(C(F)(F)F)nc2C)C(=O)C2CCC1C2 (centres unmarked) :: 2
Cc1nc(C(F)(F)F)ccc1C(=O)C1=C(OC(=O)C2CC2)C2CCC(C2)C1=O (centres unmarked) :: 2
CC1=CC(C)(C)C(O)=C(C(=O)c2ccc(C(F)(F)F)nc2C)C1=O :: 2
Cc1nc(C(F)(F)F)ccc1C(=O)C1=C(OC(=O)c2ccccc2)C2CCC(C2)C1=O (centres unmarked) :: 2
Cc1cc(C(=O)C2=C(O)C3CCC(C3)C2=O)c(C)nc1C(F)(F)F (centres unmarked) :: 2
COCc1nc(C(F)(F)F)ccc1C(=O)C1=C(O)C2CCC(C2)C1=O (centres unmarked) :: 3
CCN(CC)C(=O)OC1=C(C(=O)c2ccc(C(F)(F)F)nc2C)C(=O)C2CCC1C2 (centres unmarked) :: 1

Please find the next compound below.
### Prompt Any idea what its pre-emergence action rating, Stellaria is? The compound is O=C(C1=C(O)C2CCC(C2)C1=O)c1ccc(C(F)(F)F)nc1C(F)F (centres unmarked)
### Response 1

* * *

system: Monocotyledonous and dicotyledonous test plants; assay: Example B1: pre-emergence herbicidal action, 2 kg of AS/ha; format: in vivo; conditions: test plant Stellaria, 3 weeks, scale 1-9
recordedMetric: pre-emergence action rating, Stellaria
Just the number, please, no unit attached.

Below are worked cases with known answers.
Cc1nc(C(F)(F)C(F)(F)C(F)(F)C(F)(F)F)ccc1C(=O)C1=C(O)C2CCC(C2)C1=O (stereo not drawn) :: 2
Cc1nc(C(F)(F)Cl)ccc1C(=O)C1=C(O)C2CCC(C2)C1=O (stereo not drawn) :: 2
CCOC(=O)OC1=C(C(=O)c2ccc(C(F)(F)F)nc2C)C(=O)C2CCC1C2 (stereo not drawn) :: 1

### Prompt So what's the measured pre-emergence action rating, Stellaria for this one? COCCc1nc(C(F)(F)F)ccc1C(=O)C1=C(O)C2CCC(C2)C1=O (stereo not drawn)
### Response 2

* * *

Entries annotated with measured pre-emergence action rating, Cyperus
Tested on: Monocotyledonous and dicotyledonous test plants
Assay: Example B1: pre-emergence herbicidal action, 2 kg of AS/ha
Type: in vivo
Details: test plant Cyperus, 3 weeks, scale 1-9
Experimental: Monocotyledonous and dicotyledonous test plants are sown in standard soil in plastic pots. […] After a test period of 3 weeks, the test is evaluated with a nine-level scale of ratings (1=complete damage, 9=no effect). […]
// keep it numeric: no unit symbol after the value

COCc1nc(C(F)(F)F)ccc1C(=O)C1=C(O)C2CCC(C2)C1=O (stereo not drawn) :: 2

### Prompt Hi! What's the reported pre-emergence action rating, Cyperus for Cc1c(C(=O)C2=C(O)C3CCC(C3)C2=O)ccc(C(F)(F)F)[n+]1[O-] (stereo not drawn) on Monocotyledonous and dicotyledonous test plants?
### Response 1

### Prompt So what pre-emergence action rating, Cyperus did COc1nc(C(F)(F)F)ccc1C(=O)C1=C(O)C2CCC(C2)C1=O (stereo not drawn) get with Monocotyledonous and dicotyledonous test plants?
### Response 2

### Prompt Lab note: need pre-emergence action rating, Cyperus with Monocotyledonous and dicotyledonous test plants for entry Cc1nc(C(F)(F)Cl)ccc1C(=O)C1=C(O)C2CCC(C2)C1=O (stereo not drawn) , please look it up.
### Response 1

### Prompt Which measured pre-emergence action rating, Cyperus belongs to Cc1nc(C(F)(F)F)ccc1C(=O)C1=C(O)C(C)(C)ON(C)C1=O , tested on Monocotyledonous and dicotyledonous test plants?
### Response 2

### Prompt Requested read-out pre-emergence action rating, Cyperus, target or system Monocotyledonous and dicotyledonous test plants, entry Cc1nc(C(F)(F)C(F)(F)F)ccc1C(=O)C1=C(O)C2CCC(C2)C1=O (stereo not drawn)
### Response 2

### Prompt Test system Monocotyledonous and dicotyledonous test plants; read-out pre-emergence action rating, Cyperus; what value for Cc1nc(C(F)(F)C(F)(F)C(F)(F)C(F)(F)F)ccc1C(=O)C1=C(O)C2CCC(C2)C1=O (stereo not drawn) ?
### Response 2

### Prompt # value lookup — system Monocotyledonous and dicotyledonous test plants, readout pre-emergence action rating, Cyperus, item O=C(C1=C(O)C2CCC(C2)C1=O)c1ccc(C(F)(F)F)nc1C1CC1 (stereo not drawn)
### Response 2

### Prompt What is its pre-emergence action rating, Cyperus for Monocotyledonous and dicotyledonous test plants? Entry: O=C(C1=C(O)C2CCC(C2)C1=O)c1ccc(C(F)(F)F)nc1C(F)F (stereo not drawn)
### Response 1

### Prompt What reported pre-emergence action rating, Cyperus corresponds to CCC(=O)OC1=C(C(=O)c2ccc(C(F)(F)F)nc2C)C(=O)C2CCC1C2 (stereo not drawn) on Monocotyledonous and dicotyledonous test plants?
### Response 1

### Prompt Param readout= pre-emergence action rating, Cyperus; system= Monocotyledonous and dicotyledonous test plants; entry= CC(C)c1nc(C(F)(F)F)ccc1C(=O)C1=C(O)C2CCC(C2)C1=O (stereo not drawn) ; returns value.
### Response 1

### Prompt Find the measured pre-emergence action rating, Cyperus: item Cc1nc(C(F)(F)F)ccc1C(=O)C1=C([O-])C2CCC(C2)C1=O.[K+] (stereo not drawn) , target or system Monocotyledonous and dicotyledonous test plants.
### Response 1

* * *

tested on: Monocotyledonous and dicotyledonous test plants; assay: Example B2: post-emergence herbicidal action, 2 kg of AS/ha; type: in vivo; parameters: key: 1 = complete damage, 9 = no effect; conditions: test plant Solanum, 4- to 6-leaf stage, about 18 days, scale 1-9
Source text: […]
recordedMetric: post-emergence action rating, Solanum

Below: 3 molecules and their reported post-emergence action rating, Solanum.
CC(=O)OC1=C(C(=O)c2ccc(C(F)(F)F)nc2C)C(=O)C2CCC1C2 (centres unmarked) :: 2
CC(C)c1nc(C(F)(F)F)ccc1C(=O)C1=C(O)C2CCC(C2)C1=O (centres unmarked) :: 2
O=C(C1=C(O)C2CCC(C2)C1=O)c1ccc(C(F)(F)F)nc1 (centres unmarked) [Compound 1.001] :: 2

### Prompt Suppose we examine the molecule Cc1nc(C(F)(F)F)ccc1C(=O)C1=C(OC(=O)c2ccccc2)C2CCC(C2)C1=O (centres unmarked) ; what post-emergence action rating, Solanum value has been reported?
### Response 2

### Prompt Any idea what its post-emergence action rating, Solanum is? The molecule is Cc1nc(C(F)(F)F)ccc1C(=O)C1=C(O)C2CCC(C2)C1=O (centres unmarked)
### Response 1

### Prompt If you can, please state the reported post-emergence action rating, Solanum value of CCC(=O)OC1=C(C(=O)c2ccc(C(F)(F)F)nc2C)C(=O)C2CCC1C2 (centres unmarked) .
### Response 1

### Prompt Which measured post-emergence action rating, Solanum value corresponds to CCN(CC)C(=O)OC1=C(C(=O)c2ccc(C(F)(F)F)nc2C)C(=O)C2CCC1C2 (centres unmarked) ?
### Response 1

### Prompt Recorded post-emergence action rating, Solanum for Cc1cc(C(=O)C2=C(O)C3CCC(C3)C2=O)c(C)nc1C(F)(F)F (centres unmarked) , please?
### Response 2

* * *

tested on: Monocotyledonous and dicotyledonous test plants; assay: Example B2: post-emergence herbicidal action, 2 kg of AS/ha; format: in vivo; parameters: key: 1 = complete damage, 9 = no effect; settings: test plant Solanum, 4- to 6-leaf stage, about 18 days, scale 1-9
Measured post-emergence action rating, Solanum, listed per entry for reference.
Please reply with the number alone, leaving off any unit.

CCCc1nc(C(F)(F)F)ccc1C(=O)C1=C(O)C2CCC(C2)C1=O (stereo not shown) [Compound 1.012] :: 2
CCC1=CC(C)(C)C(O)=C(C(=O)c2ccc(C(F)(F)F)nc2C)C1=O [Compound 5.081] :: 1
Cc1nc(C(F)(F)C(F)(F)F)ccc1C(=O)C1=C(O)C2CCC(C2)C1=O (stereo not shown) [Compound 1.109] :: 2

### Prompt Lab note: need post-emergence action rating, Solanum for O=C(C1=C(O)C2CCC(C2)C1=O)c1ccc(C(F)(F)F)nc1C(F)F (stereo not shown) [Compound 1.005] on Monocotyledonous and dicotyledonous test plants, anyone have it?
### Response 2

* * *

Listing of entries alongside the reported post-emergence action rating, Solanum.
tested on: Monocotyledonous and dicotyledonous test plants; assay: Example B2: post-emergence herbicidal action, 2 kg of AS/ha; assay type: in vivo; parameters: key: 1 = complete damage, 9 = no effect; settings: test plant Solanum, 4- to 6-leaf stage, about 18 days, scale 1-9

Example results:
COc1nc(C(F)(F)F)ccc1C(=O)C1=C(O)C2CCC(C2)C1=O (centres unmarked) :: 2
CCc1nc(C(F)(F)F)ccc1C(=O)C1=C(O)C(C)(C)ON(C)C1=O :: 2
COCc1nc(C(F)(F)F)ccc1C(=O)C1=C(O)C2CCC(C2)C1=O (centres unmarked) :: 2
CC1=CC(C)(C)C(O)=C(C(=O)c2ccc(C(F)(F)F)nc2C)C1=O :: 1

### Prompt Form field: reported post-emergence action rating, Solanum of Cc1nc(C(F)(F)F)ccc1C(=O)C1=C(OC(=O)C(C)(C)C)C2CCC(C2)C1=O (centres unmarked)
### Response 2

### Prompt // lookup post-emergence action rating, Solanum for COCCc1nc(C(F)(F)F)ccc1C(=O)C1=C(O)C2CCC(C2)C1=O (centres unmarked)
### Response 2

### Prompt # get_value(readout='post-emergence action rating, Solanum', item= CCC(=O)NC1CC(=O)C(C(=O)c2ccc(C(F)(F)F)nc2C)=C(O)C1 (centres unmarked) )
### Response 2

### Prompt // query post-emergence action rating, Solanum value for entry CC=CC(=O)OC1=C(C(=O)c2ccc(C(F)(F)F)nc2C)C(=O)C2CCC1C2 (centres unmarked)
### Response 1
